These measurements were taken from patent US20120010075A1.

tested on: Phytophthora infestans; type: in vivo, Phytophthora infestans on tomato; conditions: hydrazone 50 ppm + 50 μM CuCl2.2H2O, applied 24 h before inoculation, assessed 7 days after inoculation, tomato
READOUT KIND: TLB % Control (%)
Write it as a number; the unit % goes unstated.

{"columns": ["MOLECULE", "TLB % Control, %"],
 "data": [
  ["COc1cccc(C(=O)N/N=C/c2cc(Cl)ccc2O)c1C", 71.9],
  ["O=C(N/N=C/c1ccccc1O)c1ccccc1O", 64.0],
  ["C/C(=N\\NC(=O)c1ccc(C)cc1C)c1ccccc1O [Example 33]", 50.9],
  ["CC/C(=N\\NC(=O)c1cccc(Oc2ccccc2)c1)c1ccccc1O", 0.7],
  ["COc1cc(Br)cc(/C=N/NC(=O)c2ccccc2)c1O", 51.5]
]}

Lab request: please report TLB % Control under test system Phytophthora infestans for Cc1ccc(O)c(C(=O)N/N=C/c2cc(Cl)cc(Cl)c2O)c1
87.0

Please provide the recorded TLB % Control for O=C(N/N=C/c1cc(Cl)cc(Br)c1O)c1ccccc1F , tested on Phytophthora infestans.
78.9

For Phytophthora infestans, provide TLB % Control of O=C(N/N=C/c1cc(Cl)cc(Cl)c1O)c1c(Cl)cccc1Cl please.
68.8

Form field - read-out: TLB % Control; system: Phytophthora infestans; submitted item: COc1ccc(O)c(/C=N/NC(=O)c2ccc(Cl)cc2)c1
52.7

---

tested on: Phytophthora infestans; assay type: in vivo, Phytophthora infestans on tomato; conditions: hydrazone 50 ppm + 50 μM CuCl2.2H2O, applied 24 h before inoculation, assessed 7 days after inoculation, tomato
Catalogue of compounds with associated TLB % Control
Quote the value and follow it with the unit of measurement.

Look over these answered cases.
{"columns": ["COMPOUND", "TARGET OR SYSTEM", "TLB % Control"],
 "data": [
  ["Cc1cc(C)cc(C(=O)N/N=C/c2cc(Cl)ccc2O)c1 [Example 134]", "Phytophthora infestans", "57.0%"],
  ["O=C(N/N=C/c1cc(Cl)ccc1O)c1ccccc1 [Example 20]", "Phytophthora infestans", "96.5%"],
  ["COc1cccc(C(=O)N/N=C/c2cc(Cl)cc(Cl)c2O)c1C [Example 99]", "Phytophthora infestans", "50.3%"],
  ["Cc1ccc(C(=O)N/N=C/c2cc(Br)cc(Br)c2O)c(C)c1 [Example 28]", "Phytophthora infestans", "62.7%"]
]}

Then there is this compound:
Return reported TLB % Control; argument: C/C(=N\NC(=O)c1cc(C)cc(C)c1)c1ccccc1O [Example 39]
18.6%

---

READOUT KIND: melting point

Examples with their reported melting point follow.
{"columns": ["MOLECULE", "READOUT KIND", "RESULT"],
 "data": [
  ["C/C(=N\\NC(=O)c1cccc(C)c1)c1cc(Cl)cc(Cl)c1O", "melting point", "221 to 223 °C"],
  ["Cc1cccc(C(=O)N/N=C/c2c(O)cccc2Cl)c1", "melting point", "245 to 248 °C"],
  ["C/C(=N\\NC(=O)c1ccccc1C(F)(F)F)c1ccccc1O", "melting point", "208 to 210 °C"],
  ["CC(C)(C)N(/N=C/c1ccccc1O)C(=O)c1ccccc1", "melting point", "91 to 104 °C"]
]}

So what does the record say about melting point for C/C(=N\NC(=O)c1ccccc1Br)c1cc(Br)cc(Br)c1O ?
214 to 216 °C

# get_value(readout='melting point', item= O=C(N/N=C(\CCc1ccccc1)c1ccccc1O)c1ccccc1Cl )
173 to 177 °C

# query: melting point of entry O=C(N/N=C/c1cc(Cl)cc(C(F)(F)F)c1O)c1ccccc1O
258 to 260 °C

melting point lookup needed for COc1cc(O)c(/C(C)=N/NC(=O)c2ccccc2C)c(OC)c1 , thanks.
269 to 274 °C

I am curious: what melting point value has been reported for O=C(N/N=C/c1ccc(Cl)c(Cl)c1O)c1ccccc1O ?
280 to 282 °C

Entry under review: O=C(N/N=C/c1cc(Cl)cc(C(F)(F)F)c1O)c1ccc(F)cc1 . Reported melting point?
227 to 228 °C

Need melting point, item C/C(=N\NC(=O)c1cccc(Cl)c1)c1cc(C)ccc1O
231 to 241 °C

---

# key: entry, value: melting point

Below, 6 molecules whose answers are already recorded.
{"columns": ["STRUCTURE NOTATION", "melting point"],
 "data": [
  ["O=C(N/N=C/c1cc(C(F)(F)F)cc(C(F)(F)F)c1O)c1cccc([N+](=O)[O-])c1", "256 to 258 °C"],
  ["Cc1cc(C)cc(C(=O)N/N=C/c2ccccc2O)c1", "203 to 205 °C"],
  ["C/C(=N\\NC(=O)c1ccccc1Br)c1cc(Cl)ccc1O", "222 to 225 °C"],
  ["O=C(N/N=C/c1cc(Cl)cc(Cl)c1O)c1cc(Cl)ccc1Br", "228 to 231 °C"],
  ["C/C(=N\\NC(=O)c1ccc(C(F)(F)F)cc1)c1cc(F)cc(F)c1O", "287 to 291 °C"],
  ["Cc1cc(C)cc(C(=O)N/N=C/c2cc([N+](=O)[O-])cc(Br)c2O)c1", "283 to 300 °C"]
]}

Need melting point, item C/C(=N\NC(=O)c1cccc(Cl)c1)c1cccc([N+](=O)[O-])c1O
251 to 286 °C

Request the reported melting point associated with C/C(=N\NC(=O)c1ccc(Cl)cc1)c1cc(C(F)(F)F)ccc1O
263 to 265 °C

Looking for the measured melting point of C/C(=N\NC(=O)c1cccc(C)c1)c1cccc([N+](=O)[O-])c1O , can you help?
235 to 239 °C

Item under review: C/C(=N\NC(=O)c1ccc(Br)cc1)c1cc(C(F)(F)F)ccc1O . Reported melting point?
256 to 259 °C

Requested read-out: melting point. Entry: Cc1ccc(C(=O)N/N=C/c2cc(Br)cc(F)c2O)cc1
228 to 229 °C

Requested read-out: melting point. Entry: C/C(=N\NC(=O)c1ccccc1Cl)c1cccc(Cl)c1O
189 to 193 °C

Look up melting point for this molecule: C/C(=N\NC(=O)c1cccc(Cl)c1)c1cccc(Cl)c1O
197 to 219 °C

Looking for the measured melting point of O=C(N/N=C/c1c(C(F)(F)F)ccc(Cl)c1O)c1cccc([N+](=O)[O-])c1 , can you help?
277 to 279 °C

I'd like to know its melting point. The molecule in question is O=C(N/N=C/c1c(Cl)ccc(Cl)c1O)c1cccc(Cl)c1
232 to 234 °C

Sample C/C(=N\NC(=O)c1ccc(Br)cc1)c1cccc(Cl)c1O — what was its melting point?
226 to 232 °C

Report melting point for CCOc1ccc(C(=O)N/N=C/c2cc(Cl)cc(Cl)c2O)cc1 please.
279 to 281 °C

Could you tell me which melting point is on file for O=C(N/N=C/c1cccc(C(F)(F)F)c1O)c1ccccc1 ?
170 to 173 °C

Reported melting point, molecule O=C(N/N=C/c1cccc(Cl)c1O)c1ccc(Cl)cc1 : ____
217 to 219 °C

Quick one: melting point of C/C(=N\NC(=O)c1ccc(C)cc1)c1cc(Br)cc(Br)c1O ?
258 to 259 °C

Would you kindly share the measured melting point for O=C(N/N=C/c1cc(C(F)(F)F)ccc1O)c1ccccc1C(F)(F)F ?
174 to 176 °C

# get_value(readout='melting point', item= C/C(=N\NC(=O)c1ccccc1Br)c1cccc([N+](=O)[O-])c1O )
186 to 188 °C

Given CCc1ccc(C(=O)N/N=C/c2cc(Cl)cc(Cl)c2O)cc1 , state its recorded melting point.
286 to 289 °C

Which melting point is reported for this molecule? O=C(N/N=C/c1cc(Cl)c(C(F)(F)F)cc1O)c1ccccc1
242 to 243 °C

---

LEPTNO % Inhn. Plus Copper Observed overview
test system: Leptosphaeria nodorum (LEPTNO); experiment: In vitro fungitoxicity of hydrazones with and without copper towards Leptosphaeria nodorum (Example 26); assay type: cell-based; settings: copper-plus medium (CuCl2 10 μM); test compound Concn. 0.05 μg/mL; 72 h at 25° C.
Express your answer in %, writing the number without its unit.

{"columns": ["COMPOUND", "LEPTNO % Inhn. Plus Copper Observed (%)"],
 "data": [
  ["O=C(N/N=C/c1cccc(Cl)c1O)c1cccc(Cl)c1 [Example 427]", 97.9],
  ["COc1cc(O)c(/C(C)=N/NC(=O)c2ccccc2)c(OC)c1 [Example 526]", 16.2],
  ["O=C(N/N=C/c1cc(Cl)cc(C(F)(F)F)c1O)c1ccccc1 [Example 320]", 96.4],
  ["Cc1ccc(C(=O)N/N=C/c2cc(C(F)(F)F)cc(C(F)(F)F)c2O)cc1 [Example 333]", 93.2],
  ["O=C(N/N=C/c1cc(C(F)(F)F)cc(C(F)(F)F)c1O)c1ccc([N+](=O)[O-])cc1 [Example 339]", 95.4],
  ["O=C(N/N=C/c1c(Cl)ccc(Cl)c1O)c1ccccc1C(F)(F)F [Example 373]", 97.3]
]}

Using the record for O=C(N/N=C/c1cc(Cl)cc(Br)c1O)c1ccccc1C(F)(F)F [Example 418] , report its LEPTNO % Inhn. Plus Copper Observed.
97.3

Name the reported LEPTNO % Inhn. Plus Copper Observed value associated with the compound C/C(=N\NC(=O)c1ccc(Cl)cc1O)c1cc(Cl)cc(Cl)c1O [Example 489]
97.8

Entry Cc1ccc(C(=O)N/N=C/c2c(Cl)ccc(Cl)c2O)c(O)c1 [Example 374] : reported LEPTNO % Inhn. Plus Copper Observed = ?
98.2

LEPTNO % Inhn. Plus Copper Observed lookup needed for Cc1cccc(C(=O)N/N=C/c2c(Cl)ccc(Cl)c2O)c1 [Example 365] , thanks.
95.6

Recorded LEPTNO % Inhn. Plus Copper Observed of C/C(=N\NC(=O)c1cccc(Cl)c1)c1cc(Br)cc(Br)c1O [Example 544] , please.
97.6
